experiment-summary: Determination of carbamate half-lives: conversion of carbamate to 4-methoxyphenol in phosphate buffer, HPLC
Type: physicochemical
particulars: pH 7.4, pH 7.4 phosphate buffer, 37° (Table I), read-out: t1/2 (time required for 50% conversion of carbamate to 4-methoxyphenol)
quantity-name: log10 half-life (log10 of the value in h)
Values are log10 of half-life in h.

Past entries and their recorded results:
COc1ccc(OC(=O)NCCCN)cc1.Cl: 1.08
CNCCNC(=O)Oc1ccc(OC)cc1: 1.09
CNCCN(C)C(=O)Oc1ccc(OC)cc1 [drawing 8]: -0.22
CNCCCN(C)C(=O)Oc1ccc(OC)cc1: 1.38
CCNCCN(CC)C(=O)Oc1ccc(OC)cc1: 0.38

Give one value of log10 half-life per listed compound.
1. COc1ccc(OC(=O)N(C)CCN(C)C)cc1
2. COc1ccc(OC(=O)N(C)CCN)cc1
3. COc1ccc(OC(=O)NCCN)cc1

Reply:
[-0.05, 0.89, 1.08]

----------
experiment-summary: Determination of carbamate half-lives: conversion of carbamate to 4-methoxyphenol in phosphate buffer, HPLC
Format: physicochemical
particulars: pH 6.8, pH 6.8, 37° (Table I), read-out: t1/2
Could you please report measured half-life for the items listed next?
One number for each entry, in h.

CNCCN(C)C(=O)Oc1ccc(OC)cc1 [drawing 8]: 2.33

Kindly review the next molecule as well.
Task item: Quick check: half-life of `COc1ccc(OC(=O)N(C)CCN(C)C)cc1` ?
Reply: 3.23

----------
experiment-summary: Partition coefficient, octanol/pH 7.4 buffer
Assay type: physicochemical
quantity-name: logD
Numbers only.

Task item: Tell me the measured logD of `CNCCN(C)C(=O)Oc1ccc(OC)cc1` , please.
Reply: -1.02
